assay: Stability in rat plasma (37°C); type: in vitro ADME; details: 1 h
The entries below are paired with their reported Concentration change (%) (stability) in rat plasma.

>  <Substance smiles>
CCN(CC)C(=O)CC(C(=O)/C=C/c1ccc(OC)c(OC)c1)C(=O)/C=C/c1ccc(OC)c(OC)c1

>  <Result>
68%

$$$$
>  <Substance smiles>
COc1ccc(/C=C/C(=O)C(C)(CC(=O)N(C)C)C(=O)/C=C/c2ccc(OC)c(OC)c2)cc1OC

>  <Result>
101%

$$$$
>  <Substance smiles>
COc1ccc(/C=C/C(=O)C(CC(=O)N(C)C)=C(O)/C=C/c2ccc(OC)c(OC)c2)cc1OC

>  <Result>
93%

$$$$

Value lookup for Concentration change (%) (stability) in rat plasma; key = CCN(CC)C(=O)CC(C)(C(=O)/C=C/c1ccc(OC)c(OC)c1)C(=O)/C=C/c1ccc(OC)c(OC)c1 98%

----------
experiment: Stability in rat plasma (37°C); format: in vitro ADME; details: 2 h
Measure name: Concentration change (%) (stability) in rat plasma
Please reply with the bare figure in % and do not write the unit itself.

>  <Compound>
CCN(CC)C(=O)CC(C)(C(=O)/C=C/c1ccc(OC)c(OC)c1)C(=O)/C=C/c1ccc(OC)c(OC)c1 [Compound 6]

>  <Measured number>
96

$$$$
>  <Compound>
COc1ccc(/C=C/C(=O)C(CC(=O)N(C)C)=C(O)/C=C/c2ccc(OC)c(OC)c2)cc1OC [JM77]

>  <Measured number>
88

$$$$
>  <Compound>
COc1ccc(/C=C/C(=O)C(C)(CC(=O)N(C)C)C(=O)/C=C/c2ccc(OC)c(OC)c2)cc1OC [Compound 7]

>  <Measured number>
100

$$$$

I would be grateful if you could share the reported Concentration change (%) (stability) in rat plasma for CCN(CC)C(=O)CC(C(=O)/C=C/c1ccc(OC)c(OC)c1)C(=O)/C=C/c1ccc(OC)c(OC)c1 [JM49] . 54

----------
Examples of molecules with documented IC50 follow.
biological target: Androgen Receptor (AR) (Homo sapiens, UniProt P10275, H875Y, form not given); assay: Western Blot analysis of AR protein expression in CWR22Rv1 cells; assay type: cell-based; conditions: Western blotting, 48 h post-incubation, read-out: Reduction of AR expression IC50 (µM) 48 h
Sequence (P10275 whole entry H875Y, form open): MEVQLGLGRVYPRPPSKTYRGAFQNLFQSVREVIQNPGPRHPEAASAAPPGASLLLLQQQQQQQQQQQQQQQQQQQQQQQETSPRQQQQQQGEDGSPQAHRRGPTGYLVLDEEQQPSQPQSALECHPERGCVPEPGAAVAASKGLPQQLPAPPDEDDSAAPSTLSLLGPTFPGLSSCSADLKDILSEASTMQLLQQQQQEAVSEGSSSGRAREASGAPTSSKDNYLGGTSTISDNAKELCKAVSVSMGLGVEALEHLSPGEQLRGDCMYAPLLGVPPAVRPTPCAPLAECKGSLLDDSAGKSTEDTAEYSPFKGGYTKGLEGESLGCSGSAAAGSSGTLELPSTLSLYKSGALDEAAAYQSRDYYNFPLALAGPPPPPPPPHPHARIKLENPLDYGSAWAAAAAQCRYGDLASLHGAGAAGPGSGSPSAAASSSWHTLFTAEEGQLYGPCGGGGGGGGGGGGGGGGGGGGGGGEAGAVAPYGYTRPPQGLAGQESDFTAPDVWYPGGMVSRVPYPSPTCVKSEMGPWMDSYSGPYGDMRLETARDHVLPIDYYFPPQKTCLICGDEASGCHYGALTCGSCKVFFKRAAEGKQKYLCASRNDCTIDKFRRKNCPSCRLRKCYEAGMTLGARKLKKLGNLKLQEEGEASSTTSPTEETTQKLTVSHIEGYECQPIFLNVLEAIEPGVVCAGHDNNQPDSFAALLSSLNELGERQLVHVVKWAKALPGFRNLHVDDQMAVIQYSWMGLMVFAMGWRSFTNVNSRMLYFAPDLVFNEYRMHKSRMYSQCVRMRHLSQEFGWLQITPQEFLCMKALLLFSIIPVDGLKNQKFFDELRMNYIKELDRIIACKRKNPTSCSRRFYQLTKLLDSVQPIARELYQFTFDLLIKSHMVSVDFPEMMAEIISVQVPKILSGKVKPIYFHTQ
The reply should read as a number followed by its unit.

>  <Substance smiles>
COc1ccc(/C=C/C(=O)C(C)(CC2CC2)C(=O)/C=C/c2ccc(OC)c(OC)c2)cc1OC

>  <Result>
2.1 µM

$$$$

Attention now shifts to the item below.
Data request, read-out IC50, for COc1ccc(/C=C/C(=O)C(C)(CC2CCCCC2)C(=O)/C=C/c2ccc(OC)c(OC)c2)cc1OC 4 µM

----------
experiment: Stability in human plasma (37°C); assay type: in vitro ADME; settings: result in words (Table 5 not given)
Measure name: stability in human plasma

>  <Substance smiles>
COc1ccc(/C=C/C(=O)C(CC(=O)N(C)C)=C(O)/C=C/c2ccc(OC)c(OC)c2)cc1OC

>  <Measure name>
stability in human plasma

>  <Result>
chemically unstable

$$$$
>  <Substance smiles>
CCN(CC)C(=O)CC(C(=O)/C=C/c1ccc(OC)c(OC)c1)C(=O)/C=C/c1ccc(OC)c(OC)c1

>  <Measure name>
stability in human plasma

>  <Result>
chemically unstable

$$$$

----------
system: CWR22Rv1 cells (human prostate cancer); test: MTT cell growth assay, CWR22Rv1 cells; format: cell-based; settings: Homo sapiens, 120 h, 5 days, read-out: Inhibition of Tumor cells growth IC50
Measure name: pIC50
Bear in mind: pIC50 is minus log10 of a mol/L concentration; give just that figure.

Below, each entry is followed by its recorded pIC50 result.
>  <Substance smiles>
COc1ccc(/C=C/C(=O)C(C)(CC(=O)N(C)C)C(=O)/C=C/c2ccc(OC)c(OC)c2)cc1OC

>  <pIC50>
5.70

$$$$
>  <Substance smiles>
CCN(CC)C(=O)CC(C)(C(=O)/C=C/c1ccc(OC)c(OC)c1)C(=O)/C=C/c1ccc(OC)c(OC)c1

>  <pIC50>
5.82

$$$$
>  <Substance smiles>
CCN(CC)C(=O)CC(Cl)(C(=O)/C=C/c1ccc(OC)c(OC)c1)C(=O)/C=C/c1ccc(OC)c(OC)c1

>  <pIC50>
5.40

$$$$
>  <Substance smiles>
CCCCC(C)(C(=O)/C=C/c1ccc(OC)c(OC)c1)C(=O)/C=C/c1ccc(OC)c(OC)c1

>  <pIC50>
5.64

$$$$

Looking for the measured pIC50 of COc1ccc(/C=C/C(=O)C(F)(CC2CCC2)C(=O)/C=C/c2ccc(OC)c(OC)c2)cc1OC , can you help? 5.44

----------
molecular target: Androgen Receptor (AR) (Homo sapiens, UniProt P10275, H875Y, form not given); experiment: Western Blot analysis of AR protein expression in CWR22Rv1 cells; type: cell-based; details: Western blotting, 24 h post-incubation, read-out: Reduction of AR expression IC50 (µM) 24 h
Measure name: IC50 (µM)
Number in µM, nothing else.

These solved cases illustrate the format of a correct answer.
>  <Compound>
CCN(CC)C(=O)CC(C)(C(=O)C=CC=Cc1ccc(OC)c(OC)c1)C(=O)C=CC=Cc1ccc(OC)c(OC)c1 (centres unmarked)

>  <Unit descriptor>
µM

>  <IC50>
2.8

$$$$
>  <Compound>
CCOC(=O)CCC(C)(C(=O)/C=C/c1ccc(OC)c(OC)c1)C(=O)/C=C/c1ccc(OC)c(OC)c1

>  <Unit descriptor>
µM

>  <IC50>
1.8

$$$$

Turning now to a further compound:
// returns reported IC50 for input COc1ccc(/C=C/C(=O)C(C)(CC(=O)N2CCOCC2)C(=O)/C=C/c2ccc(OC)c(OC)c2)cc1OC 2.2

----------
Measured Concentration change (%) (stability) in rat plasma, listed per entry.
experiment: Stability in rat plasma (37°C); assay type: in vitro ADME; details: 6 h
Field format: number, assumed %, no unit text.

>  <Molecule>
CCN(CC)C(=O)CC(C)(C(=O)/C=C/c1ccc(OC)c(OC)c1)C(=O)/C=C/c1ccc(OC)c(OC)c1 [Compound 6]

>  <Unit descriptor>
%

>  <Measured number>
93

$$$$

Quick one: Concentration change (%) (stability) in rat plasma for CCN(CC)C(=O)CC(C(=O)/C=C/c1ccc(OC)c(OC)c1)C(=O)/C=C/c1ccc(OC)c(OC)c1 [JM49] ? 27

GET /values?readout=Concentration change (%) (stability) in rat plasma&item= COc1ccc(/C=C/C(=O)C(CC(=O)N(C)C)=C(O)/C=C/c2ccc(OC)c(OC)c2)cc1OC [JM77] 73

Look at this molecule and give its reported Concentration change (%) (stability) in rat plasma. COc1ccc(/C=C/C(=O)C(C)(CC(=O)N(C)C)C(=O)/C=C/c2ccc(OC)c(OC)c2)cc1OC [Compound 7] 101

----------
system: CWR22Rv1 cells (human prostate cancer); experiment: MTT cell growth assay, CWR22Rv1 cells; assay type: cell-based; conditions: Homo sapiens, 120 h, 5 days, read-out: Inhibition of Tumor cells growth IC50
The reader will find reported pIC50 values listed item by item below.
Scale: pIC50 equals -log10([C]), with [C] in mol/L.

Worked cases, pIC50 given:
>  <Compound>
COc1ccc(/C=C/C(=O)C(C)(CC2CCCC2)C(=O)/C=C/c2ccc(OC)c(OC)c2)cc1OC [Compound 4]

>  <Measured number>
5.59

$$$$
>  <Compound>
COc1ccc(C=CC(=O)C=C(O)C=Cc2ccc(OC)c(OC)c2)cc1OC [ASC-J9®, reference compound]

>  <Measured number>
5.40

$$$$
>  <Compound>
CCCCC(F)(C(=O)C=Cc1ccc(OC)c(OC)c1)C(=O)C=Cc1ccc(OC)c(OC)c1 (stereo not shown) [Compound 19]

>  <Measured number>
5.33

$$$$
>  <Compound>
COc1ccc(/C=C/C(=O)C(F)(CC2CCCCC2)C(=O)/C=C/c2ccc(OC)c(OC)c2)cc1OC [Compound 16]

>  <Measured number>
5.40

$$$$

Lab note: next compound to report on.
What does the record list as pIC50 for COc1ccc(/C=C/C(=O)C(F)(CC2CCCC2)C(=O)/C=C/c2ccc(OC)c(OC)c2)cc1OC [Compound 15] ? 5.49

----------
test: Stability in rat plasma (37°C); format: in vitro ADME; conditions: 24 h
Measure name: Concentration change (%) (stability) in rat plasma
The reply should contain only the number, in %.

Below, 3 compounds whose answers are already recorded.
>  <Compound>
CCN(CC)C(=O)CC(C(=O)/C=C/c1ccc(OC)c(OC)c1)C(=O)/C=C/c1ccc(OC)c(OC)c1 [JM49]

>  <Unit descriptor>
%

>  <Measured number>
2

$$$$
>  <Compound>
CCN(CC)C(=O)CC(C)(C(=O)/C=C/c1ccc(OC)c(OC)c1)C(=O)/C=C/c1ccc(OC)c(OC)c1 [Compound 6]

>  <Unit descriptor>
%

>  <Measured number>
77

$$$$
>  <Compound>
COc1ccc(/C=C/C(=O)C(C)(CC(=O)N(C)C)C(=O)/C=C/c2ccc(OC)c(OC)c2)cc1OC [Compound 7]

>  <Unit descriptor>
%

>  <Measured number>
99

$$$$

Would you kindly share the measured Concentration change (%) (stability) in rat plasma for COc1ccc(/C=C/C(=O)C(CC(=O)N(C)C)=C(O)/C=C/c2ccc(OC)c(OC)c2)cc1OC [JM77] ? 27

Origin of the recorded values: patent EP3150203B1
